# System: UACC-62 melanoma
# testName: NCI tumour cell line growth inhibition, 48 h; in the data active = GI50 below about 0.43 µM; inactive = the rest
Labels: yes = active, no = inactive

compound	labelValue
C=CCc1cc(Nc2c3ccc(Cl)cc3nc3ccc(OC)cc23)cc(CN(CC)CC)c1O	no
Nc1n[nH]c2ccc([C@@H]3Nc4cc5c(cc4[C@H]4C6CCC(C6)[C@@H]34)C(=O)NC5)cc12 (stereo partly drawn)	yes
FC(F)(F)c1cccc(-c2nn3ncccc3c2-c2ccnc(Nc3ccc4c(c3)OCCO4)n2)c1	no
C/C(=N\O)c1cccc(Nc2cc(-n3ccnc3)c3ccccc3n2)c1	no
COc1cc(C(=O)Nc2cc(O)c(CC=C(C)C)c(O)c2)cc2c1O[C@]1(C)CC[C@@H](O)C(C)(C)[C@H]1C2	yes
CC1c2ccccc2CCN1c1ccc(CO)c(Cl)c1 (stereo not drawn)	yes
N/C(=N\OC(=O)c1ccccc1)C(Cc1ccccc1)C(=O)NOC(=O)c1ccccc1 (stereo not drawn)	no
COc1cc(/C=C/c2ccc3c(Br)cc(Br)c(O)c3n2)ccc1O	no
COc1cc2c(cc1F)C(c1ccccc1Cl)=Nc1c(n[nH]c1C)N2	no
COc1cc(C(=O)c2cc(C)c3[nH]c4ccc(O)cc4c3c2C)cc(OC)c1OC	yes
Oc1c(-c2cc(C(F)(F)F)[nH]n2)cc(Cl)c(OCc2ccc(Cl)cc2)c1-c1ccc(Cl)c(C(F)(F)F)c1	yes
C[n+]1c2ccccc2nc2c(N)cc(N)cc21	no
C[C@@H]1O[C@@H](O[C@@H]2[C@@H](O)[C@H](OCCc3ccc(O)c(O)c3)O[C@H](CO)[C@H]2OC(=O)/C=C/c2ccc(O)c(O)c2)[C@H](O)[C@H](OC2OC[C@](O)(CO)[C@H]2O)[C@H]1O (stereo partly drawn)	no
COc1cc2cc(Oc3ccc(NC(=O)c4ccc(Cl)c(Cl)c4)cc3)c(C)nc2cc1OC	no
COC(=O)c1cc(-c2ccc(OC)c(OC)c2)[nH]c1N/N=C/c1c(Cl)cccc1Cl	no
Cc1ccc(C2C3Cc4ccccc4C3=NN2c2ccc(S(=O)(=O)/N=c3\scc(-c4ccccc4)n3-c3ccccc3)cc2)cc1 (stereo not drawn)	no
CSc1ccc(C2=NN(C(C)=O)C(c3ccc(-c4ccc(Cl)cc4)o3)C2)cc1 (stereo not drawn)	no
C[C@@H]1Cc2cc(O)ccc2[C@H]2CC[C@]3(C)/C(=C/COCCN(C)C)CC[C@H]3[C@H]12 (tested in a mixture with another compound)	yes
